Ref: the RNAGym collection of RNA variant scans (doi:10.1101/gr.219683.116)

B1: mRNA-splicing (parent)
chain: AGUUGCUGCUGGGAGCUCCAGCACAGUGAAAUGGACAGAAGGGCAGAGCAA

variants of: B1; assay: exon inclusion enrichment index; higher = more inclusion; WT1 exon 5 minigene, HEK293

- mutation_list: "G5U G8U C9U G21U C22U"
  exon inclusion enrichment index: 0.0182
- mutation_list: "G2A U3G G5C C6U G8C C9U U10C"
  exon inclusion enrichment index: 1.42
- mutation_list: "G5A C6G U7G C9A A14U G15A"
  exon inclusion enrichment index: 0.000793
- mutation_list: "G5C C6A U7C G8A U10A A31G U32A"
  exon inclusion enrichment index: 0.854
- mutation_list: "G5C C6A U7C G8A U10A G26A"
  exon inclusion enrichment index: 0.156
- mutation_list: "G5A C6U U7A G8U C9A A14G G15A"
  exon inclusion enrichment index: 0.0192
- mutation_list: "G5C C6A U7C G8A U10A G11U"
  exon inclusion enrichment index: 0.955
- mutation_list: "G5C C6G U7C U10C G42A"
  exon inclusion enrichment index: 4.32
- mutation_list: "G5A C6U U7A G8U C9A A45C G46U"
  exon inclusion enrichment index: 0.0134
- mutation_list: "G5C C6A U7C G8A U10A G46U A47C"
  exon inclusion enrichment index: 0.501
- mutation_list: "G5C C6G U7C U10C G41A G42C"
  exon inclusion enrichment index: 3.88
